Test system: PBP3 of P. aeruginosa (PaPBP3) (Pseudomonas aeruginosa)
Construct: P. aeruginosa PBP3 (amino acids 40 to 563); His-tag; made in house; host or cells: E. coli BL21 (DE3) Rosetta, plasmid pET41_PBP-3
Sequence (G3XD46 40-563): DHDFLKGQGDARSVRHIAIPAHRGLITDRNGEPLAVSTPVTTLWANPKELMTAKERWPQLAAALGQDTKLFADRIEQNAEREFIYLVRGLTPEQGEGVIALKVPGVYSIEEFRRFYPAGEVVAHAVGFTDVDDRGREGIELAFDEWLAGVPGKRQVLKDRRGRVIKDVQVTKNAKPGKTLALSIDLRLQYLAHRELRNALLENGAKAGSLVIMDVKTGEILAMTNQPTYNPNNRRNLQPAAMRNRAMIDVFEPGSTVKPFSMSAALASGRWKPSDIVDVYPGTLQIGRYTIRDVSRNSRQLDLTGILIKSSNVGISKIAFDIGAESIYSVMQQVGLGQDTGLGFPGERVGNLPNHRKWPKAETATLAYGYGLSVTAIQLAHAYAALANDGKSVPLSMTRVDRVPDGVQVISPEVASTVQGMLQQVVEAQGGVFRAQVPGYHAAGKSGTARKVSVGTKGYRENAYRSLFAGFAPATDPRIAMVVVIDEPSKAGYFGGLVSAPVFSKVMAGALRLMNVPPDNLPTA
Method summary: S2dfluo fluorescence transpeptidase assay
Type: biochemical
Setup conditions: 300 nM PaPBP3, 30 min preincubation, 37 °C; read-out: IC50 Determination with PaPBP3, S2dfluo Assay
pIC50: −log10 of the molar value.
Each record here notes measured pIC50.

Compound: CCNC1=C(C(=O)c2ccc(Br)cc2)C(c2ccc(Cl)cc2)N(Cc2c[nH]c3ccccc23)C1=O (stereo not shown)
Relation: <
pIC50: 4.00
//
Compound: CCN1C(=O)C(O)=C(C(=O)c2ccc(Br)cc2)C1c1ccc(Cl)cc1 (stereo not shown)
Relation: <
pIC50: 4.00
//
Compound: O=C(C1=C(O)C(=O)N(Cc2cscn2)C1c1ccc(Cl)cc1)c1ccc(Br)cc1 (stereo not shown)
Relation: <
pIC50: 4.00
//
Compound: O=C(C1=C(O)C(=O)N(CCc2c[nH]c3ccccc23)C1c1ccc(Cl)cc1)c1ccc(Br)cc1 (stereo not shown)
Relation: =
pIC50: 5.10
//
Compound: O=C(C1=C(O)C(=O)N(CCc2cc3ccccc3[nH]2)C1c1ccc(Cl)cc1)c1ccc(Br)cc1 (stereo not shown)
Relation: =
pIC50: 4.80
//
Compound: COc1ccc(CN2C(=O)/C(=C(/C)O)C(=O)[C@@H]2COC(C)(C)C)c(OC)c1
Relation: =
pIC50: 4.18
//
Compound: O=C(C1=C(O)C(=O)N(Cc2c[nH]c3ccccc23)C1c1ccc(Cl)cc1)c1ccc(Br)cc1 (stereo not shown)
Relation: =
pIC50: 4.62
